# Test system: 134 cancer cell lines
# assayInfo: Cell viability assay (ATPlite, 72 hours), IC50 on cancer cell line panel
# runConditions: Homo sapiens, Hs-578T, read-out: IC50 in cell proliferation assay, Hs 578T cell line
pIC50: −log10 of the molar value.
yes means recorded pIC50 is 5 or above; no means it is below 5.

Worked examples follow.
## Task Is reported pIC50 greater than or equal to 5 here: O=C(Nc1cnn2ccc(N3CCC[C@@H]3c3cc(F)ccc3F)nc12)N1CC[C@H](O)C1 [larotrectinib]
## Result no

## Task Is reported pIC50 greater than or equal to 5 here: C[C@H](Nc1ncnc2nc[nH]c12)c1cc2cccc(Cl)c2c(=O)n1-c1ccccc1 [duvelisib]
## Result yes

## Task Is reported pIC50 greater than or equal to 5 here: FC(F)(F)c1ccc(CNc2ccc(Cc3c[nH]c4ncc(Cl)cc34)cn2)cn1 [pexidartinib]
## Result no

## Task Is reported pIC50 greater than or equal to 5 here: CO[C@]1(C(=O)N[C@@H](C)c2ccc(-n3cc(F)cn3)nc2)CC[C@H](c2nc(C)cc(Nc3cc(C)[nH]n3)n2)CC1 [pralsetinib]
## Result yes

## Task Is reported pIC50 greater than or equal to 5 here: Cn1cnc2c(F)c(Nc3ccc(Br)cc3Cl)c(C(=O)NOCCO)cc21 [selumetinib]
## Result yes

## Task Is reported pIC50 greater than or equal to 5 here: COc1ccc(CN2C3CC2CN(c2ccc(-c4cc(OCC(C)(C)O)cn5ncc(C#N)c45)cn2)C3)cn1 [selpercatinib]
## Result yes

Further cases:
## Task Is reported pIC50 greater than or equal to 5 here: Cc1cc(Nc2ncc(Cl)c(Nc3ccccc3S(=O)(=O)C(C)C)n2)c(OC(C)C)cc1C1CCNCC1 [ceritinib]
## Result yes

====

# targetOrSystem: panel of 255 wild-type kinases (Homo sapiens, UniProt P48729)
# Sequence (P48729 whole entry): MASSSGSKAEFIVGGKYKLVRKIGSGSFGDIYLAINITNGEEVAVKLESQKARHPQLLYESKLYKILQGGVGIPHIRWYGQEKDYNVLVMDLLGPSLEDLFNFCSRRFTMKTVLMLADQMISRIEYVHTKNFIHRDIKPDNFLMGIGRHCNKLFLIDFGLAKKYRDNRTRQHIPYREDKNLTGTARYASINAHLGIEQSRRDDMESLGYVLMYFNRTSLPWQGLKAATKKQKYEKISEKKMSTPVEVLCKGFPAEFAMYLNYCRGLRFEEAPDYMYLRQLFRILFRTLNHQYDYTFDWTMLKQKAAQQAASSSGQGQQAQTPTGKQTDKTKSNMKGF
# assayInfo: Kinase panel profiling at 1 µmol/L (MSA or IMAP), percentage inhibition
# Format: biochemical
# runConditions: kinase CK1α; 1 µmol/L single concentration; read-out: %-inhibition at 1 µmol/L, CK1α
testReadout: inhibition at 1 µM (%)
Quick reminder: number only, in %, skip the unit.

## Task Output reported inhibition at 1 µM of the compound CCc1nc(C(N)=O)c(Nc2ccc(N3CCC(N4CCN(C)CC4)CC3)c(OC)c2)nc1NC1CCOCC1 [gilteritinib] on panel of 255 wild-type kinases (Homo sapiens, UniProt P48729).
## Result 13

## Task Output reported inhibition at 1 µM of the compound O=C(Nc1cnn2ccc(N3CCC[C@@H]3c3cc(F)ccc3F)nc12)N1CC[C@H](O)C1 [larotrectinib] on panel of 255 wild-type kinases (Homo sapiens, UniProt P48729).
## Result 1.46

## Task Output reported inhibition at 1 µM of the compound Cc1nc(NC(=O)N2CCC[C@H]2C(N)=O)sc1-c1ccnc(C(C)(C)C(F)(F)F)c1 [alpelisib] on panel of 255 wild-type kinases (Homo sapiens, UniProt P48729).
## Result -14

Further cases:
## Task Output reported inhibition at 1 µM of the compound CO[C@]1(C(=O)N[C@@H](C)c2ccc(-n3cc(F)cn3)nc2)CC[C@H](c2nc(C)cc(Nc3cc(C)[nH]n3)n2)CC1 [pralsetinib] on panel of 255 wild-type kinases (Homo sapiens, UniProt P48729).
## Result -2.22
